Recorded values, source paper PMC11098746.

Target: FGFR4 ectodomain (Homo sapiens, UniProt P22455)
Assay: AVEXIS normalised luminescence
No end group written: not given here.
Kindly supply the reported binding score values for the records listed here.
Numbers only.

Worked cases, answers included:
20 (protein, bait human Fc-tagged dimer) DIIIVDSNKDIQGFDPNSVLNLAENVFNIFLDTKTNNADIKTVYSSIFSNSKVTIDGTCSSMKELIKGRSLKYLDELGTEEYVNSDDVFNFAIFVYTVNGQPDIIQQVYKKHPNYISYIITCKESELFDNIEDAKDNKNVFHTNP ... 1.16
10 (protein, bait human Fc-tagged dimer) FRKYDKNKNKILISHSINNNNNAIKNNNNNNNAIKNNNNNNNAIKNNNNNNNAFSATSFSSEKNKNKAYTNVLKKKNIYIREESNKATNIKEDEEKNKKINNNDKETNYAFLSLKFFPFILTSLLHTGINQIPRNTEIELYEFEKSPMIRHMLVAEERKN ... 1.56
13 (protein, bait human Fc-tagged dimer) YLSSENQKKTIATVHNNARTNTLKKNNANNNNANDIFGLSPSEVPNLIDDEEEYEILEGVKNNADLTRSTNIDHPSPSSTMIDLDNIITEISKLKKKKLKKEMNNKLEQQTNQNNNAIHHNNENEINTFTQNIKTNSNELKNQDSSNSLISTNSNTMDELLLYSTNSEDNLDISFGELQLYENSDEDTSDYEYVNEDYSVNHIFSNDAEESFNILEDVENIALSSSNRYQYSPIGPYKKKHTKVFENFKMTRNYDEFLKLYNLKDSSDNQEEYYELLAGEPFKLNSYYYRDVKYENVKKYIFKEIYDNIQNIATENKIIVSKKEELFFYFIKSLLKNNFICLSYEEEENLLSESKLLLEAMISKKIQ ... 1.16
MNEAKEEKTNMRNNHLSRVTIEILPSDEDNDIFDINDALLDELIGINNI (also: human Fc-tagged dimer) [65] ... 1.05

--- query ---
Please fill in: binding score reported for 52 (protein, bait human Fc-tagged dimer) AEEHEITHKTYFDITIDDKPLGRIVFGLYGKVAPKTVENFVSICKGTVVDGKMLHYTNSIFHRIIPNFMAQGGDITNFNGAGGLSIYGKKFEDENFKVNHAKRGLLSMANAGKNTNGAQFFILFIPTPWLDGRHVVFGEVVEGLDKLVHIEAVGTDSGEPLKRVLVKESGELPL = 1.22
